# Test system: DU145
# RUN DESCRIPTION: MTT assay, cell viability
# Assay type: cell-based
# CONDITION PARAMETERS: Homo sapiens, DU-145, DU145, 48 h of treatment, mean ± SD
REPORTED METRIC: IC50 (µM)
Numeric only. Scale: µM

[[record]]
compound = "CC(=O)O[C@@]12CO[C@@H]1C[C@H](O)[C@@]1(C)C(=O)[C@H](O)C3=C(C)[C@@H](OC(=O)[C@H](O)[C@@H](NC(=O)OC(C)(C)C)c4ccccc4)C[C@@](O)([C@@H](OC(=O)c4ccccc4)[C@H]21)C3(C)C [Docetaxel, docetaxel, reference compound]"
target_under_test = "DU145"
experimental_result = 0.0022


Qu. IC50 for COc1ccc(C2SSC34CC5(O)C(Cl)C=CC(O)C5ON3C(=O)C2N(C)C4=O)c(O)c1OC (centres unmarked) [NB, N-methylpretrichodermamide B] ?
Ans. 13
